Values from the supplement of paper PMC10065799

Consider the following sequences; for each one, report its phosphorylation enrichment.
# Tested on: c-Src
# assay-summary: phosphorylation enrichment, bacterial display (enrichment ratio); higher = better substrate or ligand; peptides without Tyr show the background;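 further: 11-residue human phosphosite peptides and single-mutation variants displayed on the E. coli surface, counted by deep sequencing, each peptide's frequency after selection divided by its frequency in the unselected input library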;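 further: frequency after pTyr selection over input frequency; kinase dosed for 20-30% of maximal phosphorylation in three min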
Provide a numeric answer; units are not to be included.

So what does the record say about phosphorylation enrichment for ASKEPYYVHCI [MYO1D_Y585_R588H] ?
0.576

Similarly, QLATEYVFSDF [PANX1_Y10] ?
0.837

Similarly, EVDETYVPKEF [ALB_Y521] ?
0.595

Similarly, FQCLRYIKQLG [SAMHD1_Y146_R143C] ?
0.44

Similarly, RNNTEYVRDIG [MUSK_Y577_I575T] ?
0.328

Similarly, EYFENYIEELK [PARP4_Y218] ?
0.63

Similarly, RELGEYPLAEF [ALDH1A3_Y492_A493P_YF] ?
0.582

Similarly, SQQTYYPVSNM [ABCD1_Y181_R182P] ?
5.27

Similarly, ASQEEYSAMRD [KRAS_Y64_G60S] ?
0.508

Similarly, `TDGIAYEFRVI` ?
0.527

Similarly, RLLVIYPWTQR [HBG2_Y36_V35I] ?
0.588

Similarly, NGSFLYVIISQ [LRP1B_Y1988_R1987L] ?
0.403

Similarly, VKPENDRRLDI [VHL_Y175_Y175D] ?
0.356

Similarly, RAIGHYSATSK [FAM120A_Y328_Y327H] ?
0.665

Similarly, WNDLDYVDSRR [GAA_Y407_M408V] ?
0.478

Similarly, QAIDEYEKWLE [MAP9_Y603_N601D] ?
0.479

Similarly, SLEKSYELLDG [ACTB_Y240_P243L] ?
0.52

Similarly, CTTIYYNYMCN [TP53_Y234_H233Y] ?
6.51

Similarly, YRRITYHNWRH [PDE6B_Y556] ?
0.606

Similarly, RHPFFFAPELL [ALB_Y174_Y174F_YF] ?
0.932

Similarly, WIPIQDPIISE [NOG_Y222_Y222D] ?
0.557

Similarly, CTTIHCNFMCN [TP53_Y234_Y234C_YF] ?
0.441

Similarly, NLTVNYKKNLI [SQOR_Y259] ?
0.43

Similarly, RWHEGYRQTPK [CD44_Y412] ?
0.361

Similarly, GAVGNYSGGLA [MGMT_Y158] ?
0.335

Similarly, TESNNYIYTTL [FAM83B_Y637_K640T] ?
7.09

Similarly, EFFDGYWGFSV [ITGA2B_Y265_YF] ?
5.54

Similarly, CPSLLYSPVSS [CAMKK2_Y128_P127L] ?
3.5

Similarly, RHLQEYQDPLN [GFAP_Y349_L352P] ?
0.503

* * *

# System: AncSZ
# assay-summary: phosphorylation enrichment, bacterial display (enrichment ratio); higher = better substrate or ligand; peptides without Tyr show the background
Consider the following sequences; for each one, report its phosphorylation enrichment.
Provide a numeric answer; units are not to be included.

So what does the record say about phosphorylation enrichment for QQPGPYDRPGA [HNRNPH2_Y210_R206Q] ?
0.683

Similarly, ALAQKYHGGGG [HBB_Y146_H144Q] ?
0.492

Similarly, IIGNGYYFRVF [MYBPC3_Y1135] ?
1.08

Similarly, RLAKRYLIWEC [SCN5A_Y694_Q692K] ?
1.15

Similarly, DAVCFYRMENA [NPHS2_Y195_I192V_YF] ?
1.21

Similarly, TESALYGCTVL [KIAA1804_Y724] ?
1.13

Similarly, PVGDVYKKKGL [NMNAT1_Y55_A54V] ?
0.534

Similarly, GQSKGYRPKLY [SIPA1L3_Y1376] ?
0.43

Similarly, ASKEPYYVHCI [MYO1D_Y585_R588H] ?
0.953

Similarly, YGTAQYCCRMG [LRRK2_Y2023_I2020T] ?
0.719

Similarly, DHAGEYGAEAL [HBA1_Y25_A20D] ?
0.86

Similarly, NVADHYGVFKP [ATP6V0D2_Y271_YF] ?
0.557

Similarly, WDLPEYSYKDP [ITGA3_Y237_S235P] ?
2.12
